target: Butyrylcholinesterase from equine serum (Equus caballus, UniProt P81908); construct: using BChE from equine serum (lyophilized powder ≥ 500 units/mg protein); purchased Sigma-Aldrich; host or cells: equine serum; assay: biochemical; conditions: BChE (IC50) µM, isolated compounds, Table 4
Sequence (P81908 whole entry): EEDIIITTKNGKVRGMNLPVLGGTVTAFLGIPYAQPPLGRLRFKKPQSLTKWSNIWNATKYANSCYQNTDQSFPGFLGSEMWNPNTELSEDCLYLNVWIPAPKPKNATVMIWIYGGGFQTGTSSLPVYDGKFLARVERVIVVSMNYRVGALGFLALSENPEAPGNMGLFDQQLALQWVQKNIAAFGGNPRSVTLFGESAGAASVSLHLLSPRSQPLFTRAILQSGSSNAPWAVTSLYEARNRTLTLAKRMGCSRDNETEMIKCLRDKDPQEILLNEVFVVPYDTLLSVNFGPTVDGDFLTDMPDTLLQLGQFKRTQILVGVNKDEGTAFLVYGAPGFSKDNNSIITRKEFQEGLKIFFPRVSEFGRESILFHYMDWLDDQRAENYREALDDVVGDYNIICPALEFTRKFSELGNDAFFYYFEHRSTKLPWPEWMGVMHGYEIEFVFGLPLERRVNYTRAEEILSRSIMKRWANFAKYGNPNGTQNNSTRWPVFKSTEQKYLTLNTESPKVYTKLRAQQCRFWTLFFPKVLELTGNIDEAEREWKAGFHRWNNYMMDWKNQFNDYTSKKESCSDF
quantity.kind: IC50
The reply must contain the numeric value and, after it, the unit.

>>> reported("CC[C@H](CC[C@@H](C)[C@H]1CC[C@H]2[C@@H]3CC=C4C[C@@H](O)CC[C@]4(C)[C@H]3CC[C@]12C)C(C)C")
"157 µM"
>>> reported("O=c1cc(-c2ccc(O)c(O)c2)oc2cc(O)cc(O)c12")
"46.2 µM"
>>> reported("O=C(O)C=Cc1ccc(O)cc1 [Compound 6, 4-Hydroxycinnamic acid]")
"409 µM"

Here's the next entry for you.
Problem: Checklist item: IC50 tested on Butyrylcholinesterase from equine serum (Equus caballus, UniProt P81908), entry O=C(O)/C=C/c1ccccc1 , value?
Solution: 373 µM
